- Test system: K98450-129-R-PDC complex spheroid growth, percent test/control
- PROTOCOL_TEXT: Anticancer human tumor K98450-129-R-PDC patient-derived colon adenocarcinoma cell line growth inhibition [RAS]
- CONDITION_CONTEXT: second compound 0.00949 µM; first compound 0.03 µM; stronger effect = lower value
The entries below come with measured viability, T/C values attached.
Numeric only. Scale: %

Solved entries (count: 3):
{"columns": ["MOLECULE", "viability, T/C, %"],
 "data": [
  ["CCc1c2c(nc3ccc(O)cc13)-c1cc3c(c(=O)n1C2)COC(=O)[C@]3(O)CC + CCn1c(-c2cc(N3CCN(C)CC3)cnc2C(C)OC)c2c3cc(ccc31)-c1csc(n1)CC(NC(=O)C1CC1C)C(=O)N1CCCC(N1)C(=O)OCC(C)(C)C2", 39.6],
  ["CCc1c2c(nc3ccc(O)cc13)-c1cc3c(c(=O)n1C2)COC(=O)[C@]3(O)CC + CCn1c(-c2cccnc2C(C)OC)c2c3cc(ccc31)N1CCOC(CC(NC(=O)C(C(C)C)N(C)C(=O)C3(F)CCN(C(=O)C#CC(C)(C)N(C)C)CC3)C(=O)N3CCCC(N3)C(=O)OCC(C)(C)C2)C1", 22.7],
  ["CC1(C)CCC(Nc2ncc(C(F)(F)F)c(-c3c[nH]c4c(P(C)(C)=O)c(C#N)ccc34)n2)CN1 (centres undefined) + CCn1c(-c2cccnc2C(C)OC)c2c3cc(ccc31)N1CCOC(CC(NC(=O)C(C(C)C)N(C)C(=O)C3(F)CCN(C(=O)C#CC(C)(C)N(C)C)CC3)C(=O)N3CCCC(N3)C(=O)OCC(C)(C)C2)C1", 53.4]
]}

Input line: Checklist item: viability, T/C tested on K98450-129-R-PDC complex spheroid growth, percent test/control, entry CC1(C)CCC(Nc2ncc(C(F)(F)F)c(-c3c[nH]c4c(P(C)(C)=O)c(C#N)ccc34)n2)CN1 (centres undefined) + CCn1c(-c2cc(N3CCN(C)CC3)cnc2C(C)OC)c2c3cc(ccc31)-c1csc(n1)CC(NC(=O)C1CC1C)C(=O)N1CCCC(N1)C(=O)OCC(C)(C)C2 , value?
Output line: 77.8

###

- System: K98450-129-R-PDC complex spheroid growth, percent test/control
- PROTOCOL_TEXT: Anticancer human tumor K98450-129-R-PDC cell line growth inhibition [RAS];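 further: spheroids exposed to agents for seven days before the viability readout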;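 on viability, T/C: luminescence used as a proxy for viable cell amount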
- CONDITION_CONTEXT: second compound 0.316 µM; first compound 0.316 µM; stronger effect = lower value
PROPERTY: viability, T/C (%)
Return type: number; implicit unit %.

{"columns": ["COMPOUND", "viability, T/C, %"],
 "data": [
  ["CC1(O)CCCC1n1c(=O)c(C(F)F)cc2cnc(NC3CCN(S(C)(=O)=O)CC3)nc21 (stereo not given) + C=CC(=O)N1CCN(c2nc(OCC3CCCN3C)nc3c(F)c(-c4nc(N)cc(C)c4C(F)(F)F)c(Cl)cc23)C(C)C1", 33],
  ["NC1c2ccccc2OC12CCN(c1cnc3c(N4CCCc5ncccc54)n[nH]c3n1)CC2 (stereo not given) + C=CC(=O)N1CCN(c2nc(OCC3CCCN3C)nc3c(F)c(-c4nc(N)cc(C)c4C(F)(F)F)c(Cl)cc23)C(C)C1", 8.02],
  ["CC(C)NCC(C(=O)N1CCN(c2ncnc3c2C(C)CC3O)CC1)c1ccc(Cl)cc1 (stereo not given) + C#Cc1c(F)ccc2cc(O)cc(-c3ncc4c(N5CC6CCC(C5)N6)nc(OCC56CCCN5CC(F)C6)nc4c3F)c12", 110],
  ["C=CC(=O)Nc1cc(Nc2nccc(-c3cn(C)c4ccccc34)n2)c(OC)cc1N(C)CCN(C)C + C=CC(=O)N1CCN(c2nc(OCC3CCCN3C)nc3c(F)c(-c4nc(N)cc(C)c4C(F)(F)F)c(Cl)cc23)C(C)C1", 10.3]
]}

Shift focus to the following entry.
Input line: Which viability, T/C is reported for this compound? O=C(c1ccc(F)c(F)c1Nc1ccc(I)cc1F)N1CC(O)([C@@H]2CCCCN2)C1 + C#Cc1c(F)ccc2cc(O)cc(-c3ncc4c(N5CC6CCC(C5)N6)nc(OCC56CCCN5CC(F)C6)nc4c3F)c12
Output line: 18.3

###

# IC50 annotations
- Tested on: K98450-129-R-PDC complex spheroid growth, percent test/control
- PROTOCOL_TEXT: Anticancer human tumor K98450-129-R-PDC cell line growth inhibition [RAS];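 further: spheroids exposed to agents for seven days before the viability readout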
- CONDITION_CONTEXT: curve of first compound; second compound 0.316 µM

These solved cases illustrate the format of a correct answer.
{"columns": ["MOLECULE", "TGT", "IC50"],
 "data": [
  ["CCC(CC)c1cc(NC2CCC(N)C2)n2nccc2n1 (centres undefined) + C=CC(=O)N1CCN(c2nc(OCC3CCCN3C)nc3c(F)c(-c4nc(N)cc(C)c4C(F)(F)F)c(Cl)cc23)C(C)C1", "K98450-129-R-PDC complex spheroid growth, percent test/control", "< 31.6 nM"],
  ["Cc1nc(N2CCC3(CC2)COC(C)C3N)c(CO)nc1Sc1ccnc(N)c1Cl (centres undefined) + C=CC(=O)N1CCN(c2nc(OCC3CCCN3C)nc3c(F)c(-c4nc(N)cc(C)c4C(F)(F)F)c(Cl)cc23)C(C)C1", "K98450-129-R-PDC complex spheroid growth, percent test/control", "< 31.6 nM"],
  ["C[C@@H](NC(=O)c1ncnc(N)c1Cl)c1ncc(C(=O)Nc2cc(C(F)(F)F)c(Cl)cn2)s1 + C#Cc1c(F)ccc2cc(O)cc(-c3ncc4c(N5CC6CCC(C5)N6)nc(OCC56CCCN5CC(F)C6)nc4c3F)c12", "K98450-129-R-PDC complex spheroid growth, percent test/control", "> 10000 nM"]
]}

Let's switch to this molecule now.
Input line: Need IC50 of CC1(C)CCC(Nc2ncc(C(F)(F)F)c(-c3c[nH]c4c(P(C)(C)=O)c(C#N)ccc34)n2)CN1 (centres undefined) + C#Cc1c(F)ccc2cc(O)cc(-c3ncc4c(N5CC6CCC(C5)N6)nc(OCC56CCCN5CC(F)C6)nc4c3F)c12 , thanks.
Output line: > 300 nM

###

- Test system: K98450-129-R-PDC complex spheroid growth, percent test/control
- PROTOCOL_TEXT: Anticancer human tumor K98450-129-R-PDC cell line growth inhibition [RAS];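 further: spheroids exposed to agents for seven days before the viability readout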;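 on viability, T/C: luminescence used as a proxy for viable cell amount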
- CONDITION_CONTEXT: second compound 0.000949 µM; first compound 0.0316 µM; stronger effect = lower value
PROPERTY: viability, T/C

{"columns": ["COMPOUND", "TGT", "TEST_VALUE"],
 "data": [
  ["CCN1CCN(Cc2ccc(Nc3ncc(F)c(-c4cc(F)c5nc(C)n(C(C)C)c5c4)n3)nc2)CC1 + CCn1c(-c2cccnc2C(C)OC)c2c3cc(ccc31)N1CCOC(CC(NC(=O)C(C(C)C)N(C)C(=O)C3(F)CCN(C(=O)C#CC(C)(C)N(C)C)CC3)C(=O)N3CCCC(N3)C(=O)OCC(C)(C)C2)C1", "K98450-129-R-PDC complex spheroid growth, percent test/control", "70.3%"],
  ["O=C(c1ccc(F)c(F)c1Nc1ccc(I)cc1F)N1CC(O)([C@@H]2CCCCN2)C1 + CCn1c(-c2cc(N3CCN(C)CC3)cnc2C(C)OC)c2c3cc(ccc31)-c1csc(n1)CC(NC(=O)C1CC1C)C(=O)N1CCCC(N1)C(=O)OCC(C)(C)C2", "K98450-129-R-PDC complex spheroid growth, percent test/control", "87.4%"],
  ["O=C(c1ccc(F)c(F)c1Nc1ccc(I)cc1F)N1CC(O)([C@@H]2CCCCN2)C1 + CCn1c(-c2cccnc2C(C)OC)c2c3cc(ccc31)N1CCOC(CC(NC(=O)C(C(C)C)N(C)C(=O)C3(F)CCN(C(=O)C#CC(C)(C)N(C)C)CC3)C(=O)N3CCCC(N3)C(=O)OCC(C)(C)C2)C1", "K98450-129-R-PDC complex spheroid growth, percent test/control", "63.3%"],
  ["Nc1ccn(C2OC(CO)C(O)C2(F)F)c(=O)n1 (centres undefined) + CCn1c(-c2cc(N3CCN(C)CC3)cnc2C(C)OC)c2c3cc(ccc31)-c1csc(n1)CC(NC(=O)C1CC1C)C(=O)N1CCCC(N1)C(=O)OCC(C)(C)C2", "K98450-129-R-PDC complex spheroid growth, percent test/control", "80.5%"],
  ["NC1c2ccccc2OC12CCN(c1cnc3c(N4CCCc5ncccc54)n[nH]c3n1)CC2 (centres undefined) + CCn1c(-c2cccnc2C(C)OC)c2c3cc(ccc31)N1CCOC(CC(NC(=O)C(C(C)C)N(C)C(=O)C3(F)CCN(C(=O)C#CC(C)(C)N(C)C)CC3)C(=O)N3CCCC(N3)C(=O)OCC(C)(C)C2)C1", "K98450-129-R-PDC complex spheroid growth, percent test/control", "44.8%"],
  ["CC(=O)OC12COC1CC(O)C1(C)C(=O)C(O)C3=C(C)C(OC(=O)C(O)C(NC(=O)OC(C)(C)C)c4ccccc4)CC(O)(C(OC(=O)c4ccccc4)C21)C3(C)C (centres undefined) + CCn1c(-c2cc(N3CCN(C)CC3)cnc2C(C)OC)c2c3cc(ccc31)-c1csc(n1)CC(NC(=O)C1CC1C)C(=O)N1CCCC(N1)C(=O)OCC(C)(C)C2", "K98450-129-R-PDC complex spheroid growth, percent test/control", "101%"],
  ["CC(=O)OC12COC1CC(O)C1(C)C(=O)C(O)C3=C(C)C(OC(=O)C(O)C(NC(=O)OC(C)(C)C)c4ccccc4)CC(O)(C(OC(=O)c4ccccc4)C21)C3(C)C (centres undefined) + CCn1c(-c2cccnc2C(C)OC)c2c3cc(ccc31)N1CCOC(CC(NC(=O)C(C(C)C)N(C)C(=O)C3(F)CCN(C(=O)C#CC(C)(C)N(C)C)CC3)C(=O)N3CCCC(N3)C(=O)OCC(C)(C)C2)C1", "K98450-129-R-PDC complex spheroid growth, percent test/control", "69.7%"],
  ["CC(C)NCC(C(=O)N1CCN(c2ncnc3c2C(C)CC3O)CC1)c1ccc(Cl)cc1 (centres undefined) + CCn1c(-c2cccnc2C(C)OC)c2c3cc(ccc31)N1CCOC(CC(NC(=O)C(C(C)C)N(C)C(=O)C3(F)CCN(C(=O)C#CC(C)(C)N(C)C)CC3)C(=O)N3CCCC(N3)C(=O)OCC(C)(C)C2)C1", "K98450-129-R-PDC complex spheroid growth, percent test/control", "64.3%"]
]}

Next compound, viability, T/C to be filled in.
Input line: Give recorded viability, T/C with K98450-129-R-PDC complex spheroid growth, percent test/control for the following compound: CC(Nc1ccc2c(c1)OCCn1cc(N3C(=O)OCC3C(F)F)nc1-2)C(N)=O (centres undefined) + CCn1c(-c2cc(N3CCN(C)CC3)cnc2C(C)OC)c2c3cc(ccc31)-c1csc(n1)CC(NC(=O)C1CC1C)C(=O)N1CCCC(N1)C(=O)OCC(C)(C)C2
Output line: 93.6%
